# experimental protocol: Anticancer activity against human LOXIMVI cells by HTS assay
# Format: functional, cell-based
# details: LOX IMVI
pIC50: −log10 of the molar value.
measured parameter: pIC50

INSERT INTO measurements (smiles_text, observed_measurement) VALUES
  ('O=c1c(O)c(-c2ccc(O)c(O)c2)oc2cc(O)cc(O)c12', 5.33),
  ('COc1cc(O)c2c(=O)c(O)c(-c3ccc(OC)c(O)c3)oc2c1', '< 4.30'),
  ('CCCCOc1ccc(-c2oc3cc(O)cc(O)c3c(=O)c2O)cc1O', 4.54),
  ('CCCOc1cc(O)c2c(=O)c(OCCC)c(-c3ccc(OCCC)c(OCCC)c3)oc2c1', '< 4.30'),
  ('CCCCOc1cc(O)c2c(=O)c(OCCCC)c(-c3ccc(OCCCC)c(O)c3)oc2c1', '< 4.30'),
  ('CCCCOc1c(-c2ccc(O)c(O)c2)oc2cc(O)cc(O)c2c1=O', 4.58),
  ('CCCOc1ccc(-c2oc3cc(O)cc(O)c3c(=O)c2O)cc1O', '< 4.30'),
  ('CCCOc1cc(O)c2c(=O)c(OCCC)c(-c3ccc(OCCC)c(O)c3)oc2c1', '< 4.30'),
  ('COc1c(-c2ccc(O)c(O)c2)oc2cc(O)cc(O)c2c1=O', '< 4.30'),
  ('CCOc1c(-c2ccc(O)c(O)c2)oc2cc(O)cc(O)c2c1=O', '< 4.30');
